Molecular target: T1, soluble human FcRn (human, UniProt P55899 24-297; P61769 21-119, biotinylated (Sulfo-NHS-LC-Biotin) in the ELISA; amine-coupled to CM5 chip in SPR)
T1 construct: also called shFcRn; biotinylated shFcRn
Experiment: SPR, pH 6
pKd: −log10 of the molar value. Bridge positions count the residues as written; N and C are the ends. Ends that are not written are not given here.
ENDPOINT_NAME: pKd

Recorded results for 2 binders are shown here.
>>> numeric_readout("AGKIICSPGHFGGMYCQGKGTGGGK-NH2 (disulfide 6-16 (inferred)) [SEQ ID NO:8]")
4.66
>>> numeric_readout("AGQRFCTGHFGGLYPCNGPGTGGGK-NH2 (disulfide 6-16 (inferred)) [SEQ ID NO:6]")
5.24

(A) AGPSYCIEGHIDGIYCFNAGTGGGK-NH2 (disulfide 6-16 (inferred)) [SEQ ID NO:9]
(B) AGGGCVTGHFGGIYCNTQGTGGGK-NH2 (disulfide 5-15 (inferred)) [SEQ ID NO:7]
Query: Please choose the item with the lower pKd value from this pair: A and B Mark your answer with the label of the selected entry.
Reply: A
